system: tumor specific Hsp90 (NCI-N417 cell lysate); test: Hsp90 binding FP competition assay; set-up: species or system human; details: Table 2, GM-cy3B 5 nM
IC50 values for the compounds below.
PROPERTY MEASURED: IC50

                                chem_smiles  experimental_result
0  O=C1C=C(N2CCN(S(=O)(=O)c3cc(Cl)cc(Cl)c3O)CC2)c2ccccc2C1=O              1310 nM
1    COc1ccc(NC2=CC(=O)C(=O)c3ccccc32)cc1OC               390 nM
2  COc1cc(NC2=CC(=O)C(=O)c3ccccc32)cc(OC)c1OC               180 nM
3   O=C1C=C(Nc2cc3c(cc2Br)OCO3)c2ccccc2C1=O               530 nM
4    Cc1cc(C)nc(NC2=CC(=O)C(=O)c3ccccc32)c1               640 nM

----------
system: tumor specific Hsp90 (NCI-N417 cell lysate); assay: Hsp90 binding FP competition assay; set-up: species or system human; details: Table 2, GM-cy3B 5 nM
pIC50: −log10 of the molar value.
Decide using pIC50: a value greater than or equal to 6 is 1, a smaller one is 0.

>>> df
                                   compound  assigned_category
0  O=C1C=C(N2CCC(O)(c3ccc(Cl)cc3)CC2)c2ccccc2C1=O [Compound 58]                  1
1  COc1ccc(NC2=CC(=O)C(=O)c3ccccc32)c(OC)c1 [Compound 53]                  1
2  COc1ccc(S(=O)(=O)N2CCN(C3=CC(=O)C(=O)c4ccccc43)CC2)cc1OC [Compound 64]                  1
3  O=C1C=C(N2CCN(Cc3cccc(C(F)(F)F)c3)CC2)c2ccccc2C1=O [Compound 56]                  1
4  O=C1C=C(N2CCNCC2)c2ccccc2C1=O [Compound 62]                  0
5  CC(C)CN(CC(C)C)C1=CC(=O)C(=O)c2ccccc21 [Compound 49]                  0
6  COc1cc(NC2=CC(=O)C(=O)c3ccccc32)cc(OC)c1 [Compound 54]                  1
7  COc1cc(Br)c(NC2=CC(=O)C(=O)c3ccccc32)cc1OC [Compound 66]                  1
8  O=C1C=C(N2CCC(Cc3ccccc3)CC2)c2ccccc2C1=O [Compound 45]                  1

----------
test system: tumor specific Hsp90 (NCI-N417 cell lysate); experiment: Hsp90 binding FP competition assay; set-up: species or system human; conditions: Table 2, GM-cy3B 5 nM
pIC50: −log10 of the molar value.
// 0.0 strictly below 7 in pIC50; 1.0 otherwise

In [3]: df
Out[3]:
                                chem_smiles  assigned_category
0     O=C1C=C(Nc2ccc3c(c2)OCO3)c2ccccc2C1=O                1.0
1  O=C1C=C(N2CCN(Cc3cccc4ccccc34)CC2)c2ccccc2C1=O                0.0
2  O=C1C=C(N2CCN(c3cccc4ccccc34)CC2)c2ccccc2C1=O                0.0

Where do these numbers come from? They come from patent US20120022070A1.
